- System: NCI-H23 lung
- assayExplanation: NCI-60 one-dose screen, 48 h (100 = growth as untreated, 0 = no growth, -100 = all killed)
- protocolConditions: 10 µM unless noted
Compounds without any hit were thinned out: in the full panel of roughly 83,000, 20% have a hit.
I'd appreciate it if you could supply growth values for the items below.
One number for each entry, in %.

Solved cases (3 shown):
molecule=C=CCn1c(SCC(=O)Nc2ccc(C(=O)/C=C/c3ccc(Br)cc3)cc2)nnc1-c1c[nH]c2ccccc12 quantity=growth testvalue=90
molecule="COc1cc2nc(Cl)nc(Nc3cccc(C4=Nc5c(N)nc(N)nc5NC(c5ccc(Cl)cc5)C4)c3)c2cc1OC (centres undefined)" quantity=growth testvalue=87.8
molecule=CN1c2ccccc2Sc2cc(C=C(C#N)C#N)ccc21 quantity=growth testvalue=89.3

# context switch: different molecule, same growth
growth recorded for this molecule, O=S(=O)(NC1c2ccccc2C[C@H]1O)c1ccc(Cl)cc1Cl (some centres undefined) , is 92.3
